Tested on: c-Abl (mouse);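 further: 11-residue human phosphosite peptides and single-mutation variants displayed on the E. coli surface, counted by deep sequencing, each peptide's frequency after selection divided by its frequency in the unselected input library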;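 further: frequency after pTyr selection over input frequency; kinase dosed for 20-30% of maximal phosphorylation in three min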
assayDetails: phosphorylation enrichment, bacterial display (enrichment ratio); higher = better substrate or ligand; peptides without Tyr show the background
Lab note: compare phosphorylation enrichment against 0.7. Equal or greater, write Satisfied. Smaller, write Not satisfied.

1. HCFAAYFQQGD [GPI_Y351_R347C]
Satisfied
2. NELTFYCCKKD [CD59_Y87_YF]
Satisfied
3. VRLTEYPCAGL
Not satisfied
4. LAAPKYKLNVD [SMARCA2_Y1190_A1188P]
Not satisfied
5. KIFPEYLSNWT [AIFM1_Y347_L344F]
Not satisfied

State whether the measured phosphorylation enrichment reaches 0.7, counting equality as reaching it, for LRNIDYHRLDG [ATRX_Y2083_Y2084H]
Not satisfied

API: above_or_equal(metric=phosphorylation enrichment, cutoff=0.7) for item SVMAEYGLFGA [VSX2_Y219_YF]
Not satisfied

Check if phosphorylation enrichment >= 0.7 (inclusive). Item: YDAHNYHPLPV [OAT_Y55_G51D]
Satisfied

Please indicate if the recorded phosphorylation enrichment for KINKMYSDHAM meets or exceeds 0.7.
Not satisfied

Kindly determine if phosphorylation enrichment recorded for ALKKPYGVLYK [RPF2_Y59] is above or exactly 0.7.
Not satisfied

Given the entry GEDEPYSEPFA [APBA1_Y183_YF] , answer whether its phosphorylation enrichment meets or surpasses 0.7.
Not satisfied

Threshold query (phosphorylation enrichment >= 0.7) on VPVPGYTKVPE [SPRR3_Y146_L149V]
Not satisfied
